Molecular target: T1, full-length hANGPTL4 (amino acid residues 26-406 of SEQ ID NO:476) with a C-terminal hexa-histidine tag (human, UniProt Q9BY76 26-406)
T1 sequence: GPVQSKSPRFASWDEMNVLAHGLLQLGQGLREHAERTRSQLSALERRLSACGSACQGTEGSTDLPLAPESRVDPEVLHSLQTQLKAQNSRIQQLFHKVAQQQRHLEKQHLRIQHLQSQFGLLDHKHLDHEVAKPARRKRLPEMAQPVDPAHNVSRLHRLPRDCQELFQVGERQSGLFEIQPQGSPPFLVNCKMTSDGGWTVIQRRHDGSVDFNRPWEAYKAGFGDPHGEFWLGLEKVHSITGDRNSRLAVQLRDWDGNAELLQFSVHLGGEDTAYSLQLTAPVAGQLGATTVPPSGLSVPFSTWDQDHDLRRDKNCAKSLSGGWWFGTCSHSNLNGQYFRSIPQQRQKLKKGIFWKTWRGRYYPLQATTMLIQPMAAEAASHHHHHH
Assay: cell-based or functional assay
metric: % Inhibition of hANGPTL4 Activity (LPL lipase test), hANGPTL4-His (10 nM) (%)
One number for each entry, in %.

The following binders have reported results that may help.
1. H1H236N2 (antibody, V domains shown) VH: EVQLVESGGGLVQPGRSLRLSCAASGFTFDDYAMHWVRQAPGKGLEWVSGISWNSGSIVYADSVKGRFTISRDNAKNSLYLQMNSLISEDTALYYCAKDESSSSGNWFDPWGQGTLVTVSS VL: EVVMTQSPATLSVSPGERATLSCRASQSVSSNLAWYQQKPGQAPRLLIYGASTRATGIPARFSGSGSGTEFTLTISSLQSEDFAVYYCQEYNNWITFGQGTRLEIK    19
2. H1H292P (antibody, V domains shown, Fully human antibody, H1H prefix (human IgG1)) VH: EVQLVESGGGLVQPGGSLRLSCVASGFTFSSYDMHWVRQLPGKGLEWVSAIGVAGDTYYPASVKGRFTISRENAKNSLYLQMNSLRAGDTAVYYCARGDSGNYYDGDYFDFWGQGTLVTVSS VL: DIQMTQSPSTLSASVGDRVTITCRASQSINRWLAWYQQKPGKAPKVLIYKASNLESGVPSRFSGSGSGTEFTLTISSLQPDDFATYYCQQYDSYFRTFGQGTKVEIK    53

Continue with the next binder.
INPUT: Answer with the recorded % Inhibition of hANGPTL4 Activity (LPL lipase test), hANGPTL4-His (10 nM) of H1H624P (antibody, V domains shown, Fully human antibody, H1H prefix (human IgG1)) VH: EVQLVESGGGLVQPGGSLRLSCAASEFIFSSYAMNWVRQAPGKGLEWVSVISGSGDSKYYADSVKGRFTISRDNSKNTLYLQMNSLRVEDTAVYYCAKDGKDRYGFYYNFYGMDVWGQGTTVTVS VL: DIQMTQSPSFLSASVGDRVTITCWASQGISSYLAWYQQKPGKAPKILIYAASTLQSGVPSRFSASGSGTEFTLTISSLQPEDFATYHCQQLNSYPFTFGPGTKVDIK only.
OUTPUT: 48

Measured values drawn from patent US20130266574A1 for this set.
